- assay_protocol: NCI Yeast Anticancer Drug Screen. Data for the cln2 rad14 strain (AID 165);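 further: 0% = growth equal to vehicle treated cultures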
- measurement_parameters: S. cerevisiae cln2 rad14 strain, at 50.0 µM, active compounds read high
About 79,000 compounds went through this panel and 15% of them were active in at least one assay; those are over-represented in the sample as a whole.
measured_attribute: growth inhibition (%)
Provide only the numeric value, understood in %.

Query: Report growth inhibition for CNS(=O)(=O)c1ccc(Br)cc1 please.
Response: -14.2

Query: Report growth inhibition for CCC(CCCN)Nc1cc(OC)cc2c(C)ccnc12 (configuration not stated) please.
Response: -4.5

Query: Report growth inhibition for O=C1CSC(c2ccc([N+](=O)[O-])cc2)N1c1nc(-c2ccc3c(c2)CCCC3)cs1 (configuration not stated) please.
Response: 9.3

Query: Report growth inhibition for CCOC(CSc1cc(C)c2ccccc2n1)OCC please.
Response: 3.35

Query: Report growth inhibition for c1ccc(-c2n[nH]c3c2CCCc2ccccc2-3)cc1 please.
Response: -12

Query: Report growth inhibition for CCNc1nc(C)nc2c1cnn2-c1ccccc1 please.
Response: -56.5

Query: Report growth inhibition for O=C(Nc1ccc(S(=O)(=O)NC2CCCCC2)cc1)OC1CCCCCC1 please.
Response: 4.35
